Measured selectivity ratio accompanies every entry in the list below.
assay: Selectivity index, ratio of CC50 for cytotoxicity against human HePAD38 cells to EC50 for antiviral activity against Hepatitis B virus infected in human HePAD38 cells; type: toxicity, cell-based; conditions: read-out: Ratio CC50/EC50

See these solved cases before continuing.
Cc1cc(NC(=O)c2cc(NC(=O)NCc3ccc(C(C)(C)C)cc3)c(F)cc2Br)ccc1F; > 42.9
Cc1cc(NC(=O)c2cc(NC(=O)c3cc(F)c(F)c(F)c3)c(F)cc2Br)ccc1F; 21.8

Next, consider the following compound.
selectivity ratio recorded for this compound, Cc1cc(NC(=O)c2cc(NC(=O)NCc3ccc(C(F)(F)F)cc3)c(F)cc2Br)ccc1F , is 35.6

---

experiment: Oral bioavailability in Sprague-Dawley rat at 20 mg/kg by LC-MS/MS analysis; format: ADME, organism-based; conditions: in vivo
experimental-readout: bioavailability (%)
Response body: numeric value in %, unit text excluded.

bioavailability recorded for this compound, C=CCNC(=S)Nc1cc(C(=O)Nc2ccc(F)c(C)c2)c(C)cc1F , is 67.7

---

assay: Half life in Sprague-Dawley rat at 2 mg/kg, iv by LC-MS/MS analysis; assay type: ADME, organism-based; details: in vivo
experimental-readout: half-life

half-life recorded for this molecule, C=CCNC(=S)Nc1cc(C(=O)Nc2ccc(F)c(C)c2)c(C)cc1F , is 58.8 min

---

test: Selectivity index, ratio of CC50 for cytotoxicity against human HePAD38 cells to EC50 for antiviral activity against Hepatitis B virus infected in human HePAD38 cells; format: toxicity, cell-based; conditions: read-out: Ratio CC50/EC50
experimental-readout: selectivity ratio
Respond using a number only.

Cc1cc(NC(=O)c2cc(NC(=O)NC3CCCC3)c(F)cc2Br)ccc1F; 0.96
CCCc1ccc(C(=O)Nc2cc(C(=O)Nc3ccc(F)c(C)c3)c(Br)cc2F)cc1; 55.1
O=C(Nc1cc(F)c(F)c(F)c1)c1cc(S(=O)(=O)NC2CCCC2)c(F)cc1Br; 313

selectivity ratio recorded for this compound, O=C(Nc1ccc(F)c(Cl)c1)c1cc(S(=O)(=O)N[C@H]2CCOC2)c(F)cc1Br , is 21.9

selectivity ratio recorded for this compound, O=C(Nc1cc(F)c(F)c(F)c1)c1cc(S(=O)(=O)N[C@H]2CCOC2)c(F)cc1Br , is 18.8

selectivity ratio recorded for this compound, CCC(CC)NC(=O)Nc1cc(C(=O)Nc2ccc(F)c(C)c2)c(Br)cc1F , is 18.2

selectivity ratio recorded for this compound, N#Cc1cc(NC(=O)c2cc(S(=O)(=O)NC3CCCC3)c(F)cc2Br)ccc1F , is 13.3

selectivity ratio recorded for this compound, C/C=C/C(=O)Nc1cc(C(=O)Nc2ccc(F)c(C)c2)c(Br)cc1F , is 14.4

selectivity ratio recorded for this compound, Cc1cc(NC(=O)c2cc(NC(=O)NCc3ccc(F)cc3)c(F)cc2Br)ccc1F , is 54.4

selectivity ratio recorded for this compound, O=C(Nc1ccc(F)c(F)c1)c1cc(S(=O)(=O)N[C@H]2CCOC2)c(F)cc1Br , is 67.8

---

experiment: Cmax in Sprague-Dawley rat at 2 mg/kg, iv by LC-MS/MS analysis; assay type: ADME, organism-based; design: dose 2 mg/kg, route iv; conditions: in vivo
experimental-readout: Cmax (ng/mL)
Response body: numeric value in ng/mL, unit text excluded.

Cmax recorded for this compound, C=CCNC(=S)Nc1cc(C(=O)Nc2ccc(F)c(C)c2)c(C)cc1F , is 5390
